assay-readout: melting point

CCOc1c(C(=O)c2ccc(S(C)(=O)=O)c(C3=NOCC3)c2Cl)cnn1C(C)C :: 150 to 155 °C
CC(C)Oc1c(C(=O)c2ccc(S(C)(=O)=O)c(C3=NOCC3)c2Cl)cnn1C(C)C(C)C (stereo not shown) :: 125 to 130 °C
CC(C)(C)n1ncc(C(=O)c2ccc(S(C)(=O)=O)c(C3=NOCC3)c2Cl)c1O :: 198 to 200 °C

# evaluate next
# input compound: COc1c(C(=O)c2ccc(S(C)(=O)=O)c(C3=NOCC3)c2Cl)cnn1C(C(C)C)C(C)C ; wanted: its melting point 65 to 70 °C

* * *

Items are presented alongside their recorded melting point.

COc1c(C(=O)c2ccc(S(C)(=O)=O)c(C3=NOCC3)c2Cl)cnn1C(C)C [Compound 2.5] :: 185 to 190 °C

# input compound: CC(C)C(C(C)C)n1ncc(C(=O)c2ccc(S(C)(=O)=O)c(C3=NOCC3)c2Cl)c1O [Compound 2.15] ; wanted: its melting point 200 to 205 °C

# input compound: CC(C)n1ncc(C(=O)c2ccc(S(C)(=O)=O)c(C3=NOCC3)c2Cl)c1O [Compound 2.2] ; wanted: its melting point 210 to 215 °C

# input compound: CC(C)C(C)n1ncc(C(=O)c2ccc(S(C)(=O)=O)c(C3=NOCC3)c2Cl)c1O (stereo not drawn) [Compound 2.9] ; wanted: its melting point 150 to 155 °C

# input compound: CC(C)Oc1c(C(=O)c2ccc(S(C)(=O)=O)c(C3=NOCC3)c2Cl)cnn1C(C)C [Compound 2.3] ; wanted: its melting point 175 to 180 °C

# input compound: COc1c(C(=O)c2cnn(C(C)C)c2O)ccc(S(C)(=O)=O)c1C1=NOCC1 [Compound 2.13] ; wanted: its melting point 154 to 156 °C
